# credit: ChEMBL document CHEMBL3808334

# experiment-summary: Growth inhibition of human TK10 cells assessed as cell growth at 10^-8 M incubated for 48 hrs by sulforhodamine B assay
# Type: functional
# applied-conditions: TK-10, 48 h, read-out: Activity
test-readout: growth at 0.01 µM (%)
The response must be a number in % with no trailing unit.

- Clc1ccc(-c2nc(Nc3ccc(-c4nc5ccccc5[nH]4)cc3)nc(N3CCOCC3)n2)cc1: 93
- c1ccc(-c2nc(Nc3ccc(-c4nc5ccccc5[nH]4)cc3)nc(N3CCOCC3)n2)cc1: 99
- Fc1ccc(-c2nc(Nc3ccc(-c4nc5ccccc5[nH]4)cc3)nc(N3CCOCC3)n2)cc1: 91

Consider the additional compound presented here.
Param item = c1ccc2[nH]c(-c3ccc(Nc4nc(N5CCCCC5)nc(N5CCOCC5)n4)cc3)nc2c1 ; retrieve measured growth at 0.01 µM. 96

* * *

Overview of recorded growth at 0.01 µM for various molecules
# Test system: EKVX
# experiment-summary: Growth inhibition of human EKVX cells assessed as cell growth at 10^-8 M incubated for 48 hrs by sulforhodamine B assay
# Assay type: functional
# applied-conditions: read-out: Activity
Answer shape: numeric part, then the unit.

- c1ccc(-c2nc(Nc3ccc(-c4nc5ccccc5[nH]4)cc3)nc(N3CCOCC3)n2)cc1: 92%
- Fc1ccc(-c2nc(Nc3ccc(-c4nc5ccccc5[nH]4)cc3)nc(N3CCOCC3)n2)cc1: 93%
- Clc1ccc(-c2nc(Nc3ccc(-c4nc5ccccc5[nH]4)cc3)nc(N3CCOCC3)n2)cc1: 90%

// lookup growth at 0.01 µM | system=EKVX | key= c1ccc2[nH]c(-c3ccc(Nc4nc(N5CCCCC5)nc(N5CCOCC5)n4)cc3)nc2c1 93%

* * *

# experiment-summary: Growth inhibition of human TK10 cells assessed as cell growth at 10^-5 M incubated for 48 hrs by sulforhodamine B assay
# Format: functional
# applied-conditions: TK-10, 48 h, read-out: Activity
Overview of recorded growth at 10 µM for various compounds
The response must be a number in % with no trailing unit.

The following compounds have reported results that may help.
• Fc1ccc(-c2nc(Nc3ccc(-c4nc5ccccc5[nH]4)cc3)nc(N3CCOCC3)n2)cc1 = -7
• c1ccc(-c2nc(Nc3ccc(-c4nc5ccccc5[nH]4)cc3)nc(N3CCOCC3)n2)cc1 = -87
• Clc1ccc(-c2nc(Nc3ccc(-c4nc5ccccc5[nH]4)cc3)nc(N3CCOCC3)n2)cc1 = -96

Param item = c1ccc2[nH]c(-c3ccc(Nc4nc(N5CCCCC5)nc(N5CCOCC5)n4)cc3)nc2c1 ; retrieve measured growth at 10 µM. -4

* * *

# Tested on: SN12C
# experiment-summary: Growth inhibition of human SN12C cells incubated for 48 hrs by sulforhodamine B assay
# Assay type: functional
# applied-conditions: read-out: pTGI (converted)
Overview of recorded TGI for various molecules
The response must be a number in µM with no trailing unit.

- c1ccc(-c2nc(Nc3ccc(-c4nc5ccccc5[nH]4)cc3)nc(N3CCOCC3)n2)cc1: 3.8
- Fc1ccc(-c2nc(Nc3ccc(-c4nc5ccccc5[nH]4)cc3)nc(N3CCOCC3)n2)cc1: 22.9
- Clc1ccc(-c2nc(Nc3ccc(-c4nc5ccccc5[nH]4)cc3)nc(N3CCOCC3)n2)cc1: 2.4

Consider the additional molecule presented here.
Param item = c1ccc2[nH]c(-c3ccc(Nc4nc(N5CCCCC5)nc(N5CCOCC5)n4)cc3)nc2c1 ; retrieve measured TGI. 53.7

* * *

# experiment-summary: Growth inhibition of human Hs 578T cells assessed as cell growth at 10^-5 M incubated for 48 hrs by sulforhodamine B assay
# Type: functional
# applied-conditions: read-out: Activity
test-readout: growth at 10 µM (%)
The response must be a number in % with no trailing unit.

The following molecules have reported results that may help.
* c1ccc(-c2nc(Nc3ccc(-c4nc5ccccc5[nH]4)cc3)nc(N3CCOCC3)n2)cc1 | -22
* c1ccc2[nH]c(-c3ccc(Nc4nc(N5CCCCC5)nc(N5CCOCC5)n4)cc3)nc2c1 | -6

Param item = Fc1ccc(-c2nc(Nc3ccc(-c4nc5ccccc5[nH]4)cc3)nc(N3CCOCC3)n2)cc1 ; retrieve measured growth at 10 µM. -13

Param item = Clc1ccc(-c2nc(Nc3ccc(-c4nc5ccccc5[nH]4)cc3)nc(N3CCOCC3)n2)cc1 ; retrieve measured growth at 10 µM. -47

* * *

# experiment-summary: Growth inhibition of human SNB19 cells assessed as cell growth at 10^-4 M incubated for 48 hrs by sulforhodamine B assay
# Assay type: functional
# applied-conditions: SNB-19, 48 h, read-out: Activity
test-readout: growth at 100 µM

• c1ccc2[nH]c(-c3ccc(Nc4nc(N5CCCCC5)nc(N5CCOCC5)n4)cc3)nc2c1 = -1%
• Clc1ccc(-c2nc(Nc3ccc(-c4nc5ccccc5[nH]4)cc3)nc(N3CCOCC3)n2)cc1 = 1%
• c1ccc(-c2nc(Nc3ccc(-c4nc5ccccc5[nH]4)cc3)nc(N3CCOCC3)n2)cc1 = -48%

Consider the additional molecule presented here.
Param item = Fc1ccc(-c2nc(Nc3ccc(-c4nc5ccccc5[nH]4)cc3)nc(N3CCOCC3)n2)cc1 ; retrieve measured growth at 100 µM. 4%

* * *

# assay-target: Albumin (Bos taurus)
# Sequence (P02769 whole entry): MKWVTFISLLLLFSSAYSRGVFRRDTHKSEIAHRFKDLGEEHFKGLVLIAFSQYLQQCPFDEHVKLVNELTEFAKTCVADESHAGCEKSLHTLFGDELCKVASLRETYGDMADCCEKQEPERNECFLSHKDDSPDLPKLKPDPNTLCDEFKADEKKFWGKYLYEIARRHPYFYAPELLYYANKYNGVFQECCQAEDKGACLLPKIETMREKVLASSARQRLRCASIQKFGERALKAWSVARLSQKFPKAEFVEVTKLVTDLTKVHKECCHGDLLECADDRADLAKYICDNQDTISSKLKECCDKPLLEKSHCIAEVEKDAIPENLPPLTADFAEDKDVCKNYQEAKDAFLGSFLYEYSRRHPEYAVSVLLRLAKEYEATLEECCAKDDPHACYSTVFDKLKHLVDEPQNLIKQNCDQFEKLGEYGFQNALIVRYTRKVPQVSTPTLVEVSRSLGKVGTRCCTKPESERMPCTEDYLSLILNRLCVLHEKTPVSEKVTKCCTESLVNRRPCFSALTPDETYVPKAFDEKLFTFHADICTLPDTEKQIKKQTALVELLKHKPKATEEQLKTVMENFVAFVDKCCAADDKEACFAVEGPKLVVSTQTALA
# experiment-summary: Binding affinity to bovine serum albumin assessed as enhancement in emission spectra up to 20 uM by fluorescence spectroscopic analysis relative to control
# Assay type: ADME
# applied-conditions: cattle, isolated protein
test-readout: Activity (%)
The response must be a number in % with no trailing unit.

The following molecules have reported results that may help.
- Clc1ccc(-c2nc(Nc3ccc(-c4nc5ccccc5[nH]4)cc3)nc(N3CCOCC3)n2)cc1: 49.1
- c1ccc2[nH]c(-c3ccc(Nc4nc(NCCN5CCOCC5)nc(N5CCOCC5)n4)cc3)nc2c1: 57.22

Consider the additional molecule presented here.
Param item = c1ccc2[nH]c(-c3ccc(Nc4nc(N5CCCC5)nc(N5CCOCC5)n4)cc3)nc2c1 ; retrieve measured Activity. 68.99

* * *

# Test system: CCRF-CEM
# experiment-summary: Growth inhibition of human CCRF-CEM cells incubated for 48 hrs by sulforhodamine B assay
# Format: functional
# applied-conditions: read-out: pTGI (converted)
Overview of recorded TGI for various compounds
The response must be a number in µM with no trailing unit.

• Clc1ccc(-c2nc(Nc3ccc(-c4nc5ccccc5[nH]4)cc3)nc(N3CCOCC3)n2)cc1 = 0.692

Param item = c1ccc(-c2nc(Nc3ccc(-c4nc5ccccc5[nH]4)cc3)nc(N3CCOCC3)n2)cc1 ; retrieve measured TGI. 3.09

* * *

# System: A549
# experiment-summary: Growth inhibition of human A549/ATCC cells incubated for 48 hrs by sulforhodamine B assay
# Format: functional
# applied-conditions: A549, 48 h, read-out: pTGI (converted)
test-readout: TGI (µM)
The response must be a number in µM with no trailing unit.

The following compounds have reported results that may help.
- c1ccc(-c2nc(Nc3ccc(-c4nc5ccccc5[nH]4)cc3)nc(N3CCOCC3)n2)cc1: 3.98
- Clc1ccc(-c2nc(Nc3ccc(-c4nc5ccccc5[nH]4)cc3)nc(N3CCOCC3)n2)cc1: 2.14

// lookup TGI | system=A549 | key= c1ccc2[nH]c(-c3ccc(Nc4nc(N5CCCCC5)nc(N5CCOCC5)n4)cc3)nc2c1 13.2

* * *

# Tested on: K562
# experiment-summary: Growth inhibition of human K562 cells assessed as cell growth at 10^-5 M incubated for 48 hrs by sulforhodamine B assay
# Type: functional
# applied-conditions: K562, 48 h, read-out: Activity
test-readout: growth at 10 µM (%)
The response must be a number in % with no trailing unit.

The following compounds have reported results that may help.
- Clc1ccc(-c2nc(Nc3ccc(-c4nc5ccccc5[nH]4)cc3)nc(N3CCOCC3)n2)cc1: -70
- Fc1ccc(-c2nc(Nc3ccc(-c4nc5ccccc5[nH]4)cc3)nc(N3CCOCC3)n2)cc1: -31
- c1ccc(-c2nc(Nc3ccc(-c4nc5ccccc5[nH]4)cc3)nc(N3CCOCC3)n2)cc1: -54

Consider the additional compound presented here.
Param item = c1ccc2[nH]c(-c3ccc(Nc4nc(N5CCCCC5)nc(N5CCOCC5)n4)cc3)nc2c1 ; retrieve measured growth at 10 µM. -21

* * *

# Tested on: K562
# experiment-summary: Growth inhibition of human K562 cells assessed as cell growth at 10^-6 M incubated for 48 hrs by sulforhodamine B assay
# Assay type: functional
# applied-conditions: K562, 48 h, read-out: Activity
Overview of recorded growth at 1 µM for various molecules
The response must be a number in % with no trailing unit.

The following molecules have reported results that may help.
• Fc1ccc(-c2nc(Nc3ccc(-c4nc5ccccc5[nH]4)cc3)nc(N3CCOCC3)n2)cc1 = 101
• c1ccc(-c2nc(Nc3ccc(-c4nc5ccccc5[nH]4)cc3)nc(N3CCOCC3)n2)cc1 = -2
• Clc1ccc(-c2nc(Nc3ccc(-c4nc5ccccc5[nH]4)cc3)nc(N3CCOCC3)n2)cc1 = -63

Consider the additional molecule presented here.
Param item = c1ccc2[nH]c(-c3ccc(Nc4nc(N5CCCCC5)nc(N5CCOCC5)n4)cc3)nc2c1 ; retrieve measured growth at 1 µM. 109
